# assay details: Cytotoxicity against human SMMC-7221 cells assessed as reduction in cell viability after 48 hrs by MTS assay
# Type: functional, cell-based
# applied conditions: SMMC-7221, 48 h
Assign labels as follows, please: criterion met for IC50 below 2000 nM; criterion not met for IC50 equal to or exceeding 2000 nM.

(Q) Consider the compound COc1cc2c(cc1OC)[C@@H]1c3cccc(OC)c3N(C(=O)CCn3c(C)nc4ccccc43)C[C@@H]1C2 . Is its IC50 strictly less than 2000 nM?
(A) criterion not met

(Q) Consider the compound COc1cccc2c1N(CCCn1c[n+](Cc3ccc(C)cc3)c3cc(C)c(C)cc31)C[C@@H]1Cc3ccc(Br)cc3[C@H]21.[Br-] . Is its IC50 strictly less than 2000 nM?
(A) criterion met

(Q) Consider the compound COc1cc2c(cc1OC)[C@@H]1c3cccc(OC)c3N(CCCn3c[n+](Cc4ccc5ccccc5c4)c4cc(C)c(C)cc43)C[C@@H]1C2 . Is its IC50 strictly less than 2000 nM?
(A) criterion met

(Q) Consider the compound COc1cc2c(cc1OC)[C@@H]1c3cccc(OC)c3N(CCCn3c(C)[n+](Cc4ccc5ccccc5c4)c4ccccc43)C[C@@H]1C2 . Is its IC50 strictly less than 2000 nM?
(A) criterion met

(Q) Consider the compound COc1cccc2c1N(CCCn1cnc3cc(C)c(C)cc31)C[C@@H]1Cc3ccccc3[C@H]21 . Is its IC50 strictly less than 2000 nM?
(A) criterion not met

(Q) Consider the compound COc1ccc(C(=O)C[n+]2cn(CCC(=O)N3C[C@@H]4Cc5ccccc5[C@@H]4c4cccc(OC)c43)c3cc(C)c(C)cc32)cc1 . Is its IC50 strictly less than 2000 nM?
(A) criterion not met

(Q) Consider the compound COc1cccc2c1N(C(=O)CCn1c(C)[n+](CC(=O)c3ccc4ccccc4c3)c3ccccc31)C[C@@H]1Cc3ccccc3[C@H]21 . Is its IC50 strictly less than 2000 nM?
(A) criterion met

----------
# Test system: MCF7
# assay details: Cytotoxicity against human MCF7 cells assessed as reduction in cell viability after 48 hrs by MTS assay
# Format: functional, cell-based
# applied conditions: MCF7, 48 h
pIC50: −log10 of the molar value.
Assign pIC50 to each entry below.

(Q) Find pIC50 for COc1cc2c(cc1OC)[C@@H]1c3cccc(OC)c3N(C(=O)CCn3cnc4cc(C)c(C)cc43)C[C@@H]1C2 on MCF7 and write it down.
(A) < 4.70

(Q) Find pIC50 for COc1cccc2c1N(CCCn1c(C)nc3ccccc31)C[C@@H]1Cc3ccc(Br)cc3[C@H]21 on MCF7 and write it down.
(A) < 4.70

(Q) Find pIC50 for COc1cc2c(cc1OC)[C@@H]1c3cccc(OC)c3N(CCCn3cnc4cc(C)c(C)cc43)C[C@@H]1C2 on MCF7 and write it down.
(A) < 4.70

----------
# Test system: SW480
# assay details: Cytotoxicity against human SW480 cells assessed as reduction in cell viability after 48 hrs by MTS assay
# Assay type: functional, cell-based
# applied conditions: SW480, 48 h
Assign pIC50 to each entry below.
A value of pIC50 is the negative decimal logarithm of a concentration given in moles per litre.

(Q) Look up and state reported pIC50 for COc1ccc(C(=O)C[n+]2cn(CCCN3C[C@@H]4Cc5cc(OC)c(OC)cc5[C@@H]4c4cccc(OC)c43)c3cc(C)c(C)cc32)cc1
(A) 5.74

(Q) Look up and state reported pIC50 for COc1cccc2c1N(CCCn1c[n+](Cc3ccc4ccccc4c3)c3cc(C)c(C)cc31)C[C@@H]1Cc3ccc(Br)cc3[C@H]21
(A) 5.41

(Q) Look up and state reported pIC50 for COc1cccc2c1N(C(=O)CCn1c(C)[n+](CC(=O)c3ccc4ccccc4c3)c3ccccc31)C[C@@H]1Cc3ccccc3[C@H]21
(A) 5.84

(Q) Look up and state reported pIC50 for COc1cc2c(cc1OC)[C@@H]1c3cccc(OC)c3N(C(=O)CCn3c(C)[n+](CC(=O)c4ccc5ccccc5c4)c4ccccc43)C[C@@H]1C2
(A) 5.42

(Q) Look up and state reported pIC50 for COc1cccc2c1N(C(=O)CCn1c[n+](Cc3ccc4ccccc4c3)c3cc(C)c(C)cc31)C[C@@H]1Cc3ccc(Br)cc3[C@H]21
(A) 5.98

(Q) Look up and state reported pIC50 for COc1ccc(C(=O)C[n+]2c(C)n(CCCN3C[C@@H]4Cc5ccc(Br)cc5[C@@H]4c4cccc(OC)c43)c3ccccc32)cc1
(A) 5.91

(Q) Look up and state reported pIC50 for COc1cccc2c1N(CCCn1c(C)[n+](Cc3ccc4ccccc4c3)c3ccccc31)C[C@@H]1Cc3ccc(Br)cc3[C@H]21
(A) 5.89

(Q) Look up and state reported pIC50 for COc1cccc2c1N(CCCn1c(C)[n+](Cc3ccc4ccccc4c3)c3ccccc31)C[C@@H]1Cc3ccccc3[C@H]21
(A) 5.67

(Q) Look up and state reported pIC50 for COc1cc2c(cc1OC)[C@@H]1c3cccc(OC)c3N(CCCn3c(C)[n+](Cc4ccc5ccccc5c4)c4ccccc43)C[C@@H]1C2
(A) 5.82

(Q) Look up and state reported pIC50 for COc1cccc2c1N(CCCn1c[n+](CC(=O)c3ccc4ccccc4c3)c3cc(C)c(C)cc31)C[C@@H]1Cc3ccccc3[C@H]21
(A) 5.84

(Q) Look up and state reported pIC50 for COc1cccc2c1N(CCCn1c[n+](Cc3ccc(C)cc3)c3cc(C)c(C)cc31)C[C@@H]1Cc3ccc(Br)cc3[C@H]21.[Br-]
(A) 6.12
